molecular target: T1, M5-2; assay: ELISA, 1 ug/ml
T1 construct: also called PD1 mutant M5-2
quantityMeasured: OD490

Ask: I would be grateful if you could share the reported OD490 for PD1-49A2 (antibody, V domains shown, scFv-phage in the screening ELISA; whole IgG in the other assays; also called Parent 49A2) VH: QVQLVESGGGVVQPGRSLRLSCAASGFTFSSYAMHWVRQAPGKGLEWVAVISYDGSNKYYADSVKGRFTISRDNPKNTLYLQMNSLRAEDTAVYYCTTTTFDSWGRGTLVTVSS VL: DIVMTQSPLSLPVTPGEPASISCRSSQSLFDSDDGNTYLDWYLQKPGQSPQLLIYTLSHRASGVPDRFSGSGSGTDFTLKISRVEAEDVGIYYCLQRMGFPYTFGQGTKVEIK .
Result: 3.8

Ask: I would be grateful if you could share the reported OD490 for PD1-41C9 (antibody, V domains shown, scFv-phage in the screening ELISA; whole IgG in the other assays) VH: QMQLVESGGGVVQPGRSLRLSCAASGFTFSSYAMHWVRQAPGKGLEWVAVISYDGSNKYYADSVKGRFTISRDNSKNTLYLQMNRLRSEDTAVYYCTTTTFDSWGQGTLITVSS VL: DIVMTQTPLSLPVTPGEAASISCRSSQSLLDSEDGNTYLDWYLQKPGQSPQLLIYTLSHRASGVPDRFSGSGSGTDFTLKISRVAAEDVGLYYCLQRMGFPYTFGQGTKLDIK .
Result: 3.6

Ask: I would be grateful if you could share the reported OD490 for PD1-45D6 (antibody, V domains shown, scFv-phage in the screening ELISA; whole IgG in the other assays) VH: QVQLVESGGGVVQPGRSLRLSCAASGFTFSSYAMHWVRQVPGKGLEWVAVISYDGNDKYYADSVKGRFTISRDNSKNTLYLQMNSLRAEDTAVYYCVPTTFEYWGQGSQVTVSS VL: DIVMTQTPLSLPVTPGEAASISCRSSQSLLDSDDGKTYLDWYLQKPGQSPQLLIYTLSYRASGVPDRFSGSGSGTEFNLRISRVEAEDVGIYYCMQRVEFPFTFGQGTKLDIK .
Result: 3.9

Ask: I would be grateful if you could share the reported OD490 for PD1-52E8 (antibody, V domains shown, scFv-phage in the screening ELISA; whole IgG in the other assays) VH: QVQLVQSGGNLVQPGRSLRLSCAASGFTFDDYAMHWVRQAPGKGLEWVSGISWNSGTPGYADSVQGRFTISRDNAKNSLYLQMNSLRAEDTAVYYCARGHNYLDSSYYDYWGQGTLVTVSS VL: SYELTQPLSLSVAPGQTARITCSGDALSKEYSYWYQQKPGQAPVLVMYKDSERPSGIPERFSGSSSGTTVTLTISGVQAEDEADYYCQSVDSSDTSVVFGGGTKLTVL .
Result: 3.5
